All figures here come from ChEMBL document CHEMBL5058577.

Each entry below carries its recorded Population Normal (%).
- System: Fibroblast
- testMethodNotes: Multiplex assay against human fibroblast
- Format: toxicity, cell-based
- protocolConditions: 12 h, 10 µM, compound concentration 10 uM, replicate 2
// return numeric value only (unit: %, not printed)

Solved entries:
Exercise: Which Population Normal (%) value belongs to CCc1cc2cc(NS(=O)(=O)c3ccc(C#N)cc3)ccc2n(CC)c1=O ?
Solution: 94

Exercise: Consider the molecule Cl.NCCc1ccc(O)c(O)c1 [DOPAMINE HYDROCHLORIDE] and give its measured Population Normal (%).
Solution: 95

Exercise: What Population Normal (%) value was documented for this molecule, CCCOc1ccc2[nH]cc(C3=CCNCC3)c2n1.Cl ?
Solution: 97

Exercise: Request the reported Population Normal (%) associated with Br.CS(=O)(=O)Nc1c(O)ccc2c1CCCC2C1=NCCN1 (centres undefined)
Solution: 99

Exercise: Reported Population Normal (%), molecule Cc1cnc(-c2cc(N3CCN(C(=O)CCS(C)(=O)=O)CC3)ncc2Cl)c(C)c1 : ____
Solution: 98

New cases:
Exercise: Name the reported Population Normal (%) value associated with the molecule CCCCC(=O)N(Cc1ccc(-c2ccccc2-c2nnn[nH]2)cc1)[C@H](C(=O)O)C(C)C
Solution: 96

Exercise: Fill in the blank: the reported Population Normal (%) of N#Cc1c(Oc2cccc(OS(=O)(=O)CCCC(F)(F)F)c2)cccc1C(F)(F)F is ____.
Solution: 92

Exercise: I am curious: what Population Normal (%) value has been reported for CN1CCN(c2cc(-c3ccccc3)nc(N)n2)CC1 ?
Solution: 92

Exercise: Report Population Normal (%) for Cc1cccc(NC(=O)CN2CCC(c3ccccn3)CC2)c1.Cl.Cl please.
Solution: 98

Exercise: I would be grateful if you could share the reported Population Normal (%) for CN(C)C(=O)Cn1cc(-c2ccc(-c3cncc4ccccc34)cc2)cn1 .
Solution: 90

Exercise: Entry O=C1[C@H](Cc2ccc(O)cc2)N2C(=O)CCN(C(=O)NCc3ccccc3)[C@H]2CN1Cc1cccc2ccccc12 has what Population Normal (%)?
Solution: 90

Exercise: Give its Population Normal (%) value. Item: Cc1onc(-c2ccccc2Cl)c1C(=O)N(C)c1ccc(Cl)cc1
Solution: 96

Exercise: What value of Population Normal (%) has been reported for the following molecule? C[C@H](N)COC(=O)[C@@H](CCCCN)NC(=O)Cc1c(-c2ccc3ccccc3c2)[nH]c2c1ccc1ccccc12
Solution: 92

Exercise: May I ask what Population Normal (%) has been recorded for CC(C)c1noc(N2CCC(COc3ccc(-c4ccc(S(C)(=O)=O)cc4)nc3)CC2)n1 ?
Solution: 97

Exercise: // returns reported Population Normal (%) for input COc1cccc2c1c(NS(=O)(=O)c1ccc(Cl)s1)nn2Cc1cccc(CNC(=O)C(C)(C)O)c1
Solution: 92

Exercise: State the recorded Population Normal (%) for this entry: Cc1noc(-c2ccc(-c3ccc(CC(=O)O)cc3)cc2)c1NC(=O)O[C@H](C)c1ccccc1Cl
Solution: 93

Exercise: What does the record list as Population Normal (%) for CN[C@@H](C)C(=O)N[C@H](C(=O)N1CCC[C@H]1C(=O)Nc1snnc1-c1ccccc1)C1CCCCC1 ?
Solution: 90

Exercise: Param item = CCC(=O)N1CCN(c2ccc(-n3c(=O)ccc4cnc5ccc(-c6cnc7ccccc7c6)cc5c43)cc2C(F)(F)F)CC1 ; retrieve measured Population Normal (%).
Solution: 90

Exercise: // lookup Population Normal (%) for CCCCCC(O)/C=C/[C@H]1C(=O)CC(O)C1C/C=C\CCCC(=O)O (some centres undefined)
Solution: 97

Exercise: Please look up its Population Normal (%): Cc1sc2c(c1C)C(c1ccc(Cl)cc1)=N[C@@H](CC(=O)NCCCCCCCCNC(=O)COc1cccc3c1C(=O)N(C1CCC(=O)NC1=O)C3=O)c1nnc(C)n1-2 (some centres undefined)
Solution: 82

Exercise: I am curious: what Population Normal (%) value has been reported for CC(/C=C1\SC(=S)N(CCCC(=O)Nc2ccc(C(=O)O)c(O)c2)C1=O)=C\c1ccccc1 ?
Solution: 95

Exercise: Suppose we examine the molecule Cl.N=C(N)NC(=O)Cc1c(Cl)cccc1Cl [GUANFACINE HYDROCHLORIDE] ; what Population Normal (%) value has been reported?
Solution: 89

Exercise: Given CC[C@@H](C)Nc1nc(C)nc2c(-c3ccc(OC)nc3C)c(C)nn12 , state its recorded Population Normal (%).
Solution: 91

Exercise: Using the record for CCCCC1=NC2(CCCC2)C(=O)N1Cc1ccc(-c2ccccc2-c2nnn[nH]2)cc1 , report its Population Normal (%).
Solution: 92
